Test system: Vaccinia virus
Assay: microbe, parasite or virus in culture
Type: cell-based
Settings: Orthopoxvirus vaccinia, HEL, read-out: Antiviral activity EC50 Vaccinia virus
Entries and their EC50 values follow.
RECORDED_METRIC: EC50

[[record]]
molecule = "O=c1nc(NC2CC2)c2ncn(CCOCP(=O)(O)O)c2[nH]1"
result = "> 100 µM"

[[record]]
molecule = "O=c1[nH]c(=O)c2ncn(CC(CO)OCP(=O)(O)O)c2[nH]1 (racemic)"
result = "39 µM"

[[record]]
molecule = "O=c1[nH]c(=O)c2ncn(C[C@H](CF)OCP(=O)(O)O)c2[nH]1"
result = "> 313 µM"

[[record]]
molecule = "Nc1nc(O)c2ncn(COC(CO)CO)c2n1 [Ganciclovir, ganciclovir, reference compound]"
result = "> 100 µM"

